target_or_system: T208A Rho-MatB (Rhodopseudomonas palustris, UniProt Q6ND88, C106A/K488A/Q457C/R286C/T208A)
Construct: His6-tag, Rho-MatB background, two tetramethylrhodamines (5-IATR)
Sequence (Q6ND88 entry or part of it C106A/T208A/R286C/Q457C/K488A): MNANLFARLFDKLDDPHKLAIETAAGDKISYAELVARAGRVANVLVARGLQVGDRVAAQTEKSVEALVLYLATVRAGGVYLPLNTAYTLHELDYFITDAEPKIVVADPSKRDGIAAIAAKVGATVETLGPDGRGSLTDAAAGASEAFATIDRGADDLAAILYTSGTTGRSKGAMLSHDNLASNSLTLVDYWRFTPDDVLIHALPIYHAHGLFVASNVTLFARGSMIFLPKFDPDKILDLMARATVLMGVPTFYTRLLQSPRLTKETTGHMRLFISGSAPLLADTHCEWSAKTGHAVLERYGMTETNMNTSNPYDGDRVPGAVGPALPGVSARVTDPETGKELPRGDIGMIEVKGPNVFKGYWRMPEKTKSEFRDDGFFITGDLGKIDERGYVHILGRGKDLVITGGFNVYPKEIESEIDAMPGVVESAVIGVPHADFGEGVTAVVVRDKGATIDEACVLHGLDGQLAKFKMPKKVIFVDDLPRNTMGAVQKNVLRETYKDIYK
assay_summary: Survey fluorescence titration of tetramethylrhodamine-labelled MatB variants with ATP in 50 mM Tris.HCl pH 7.5, 150 mM NaCl, 10 mM MgCl2, 0.3 mg/ml BSA, 20°C, without full optimization of labelling and purification.
attribute_measured: Kd (µM)

[[record]]
molecule = "Nc1ncnc2c1ncn2[C@@H]1O[C@H](COP(=O)(O)OP(=O)(O)OP(=O)(O)O)[C@@H](O)[C@H]1O [ATP, adenosine 5'-triphosphate]"
attribute_measured = "Kd"
unit_of_measure = "µM"
observed_value = 52


* * *

target_or_system: T167A Rho-MatB (Rhodopseudomonas palustris, UniProt Q6ND88, C106A/K488A/Q457C/R286C/T167A)
Construct: His6-tag, Rho-MatB background, two tetramethylrhodamines (5-IATR)
Sequence (Q6ND88 entry or part of it C106A/T167A/R286C/Q457C/K488A): as the sequence (Q6ND88 entry or part of it C106A/T208A/R286C/Q457C/K488A) above, with T167A, A208T counted along it
assay_summary: Survey fluorescence titration of tetramethylrhodamine-labelled MatB variants with ATP in 50 mM Tris.HCl pH 7.5, 150 mM NaCl, 10 mM MgCl2, 0.3 mg/ml BSA, 20°C, without full optimization of labelling and purification.
Format: binding
attribute_measured: Kd (µM)

[[record]]
compound = "Nc1ncnc2c1ncn2[C@@H]1O[C@H](COP(=O)(O)OP(=O)(O)OP(=O)(O)O)[C@@H](O)[C@H]1O [ATP, adenosine 5'-triphosphate]"
observed_value = 149


* * *

target_or_system: Parent (Rho-MatB) (Rhodopseudomonas palustris, UniProt Q6ND88, C106A/K488A/Q457C/R286C)
Construct: N-terminal His6-tag, expressed in E. coli; two tetramethylrhodamines (5-IATR) on introduced cysteines
Sequence (Q6ND88 entry or part of it C106A/R286C/Q457C/K488A): as the sequence (Q6ND88 entry or part of it C106A/T208A/R286C/Q457C/K488A) above, with A208T counted along it
assay_summary: Fluorescence titration (excitation 553 nm, emission 571 nm) of 0.5 µM fully purified Rho-MatB with ATP in 50 mM Hepes pH 7.0, 100 mM NaCl, 10 mM MgCl2, 0.3 mg/ml BSA, 20°C, quadratic binding fit.
pKd: −log10 of the molar value.
attribute_measured: pKd

[[record]]
compound = "Nc1ncnc2c1ncn2[C@@H]1O[C@H](COP(=O)(O)OP(=O)(O)OP(=O)(O)O)[C@@H](O)[C@H]1O [ATP, adenosine 5'-triphosphate]"
attribute_measured = "pKd"
observed_value = 5.19


* * *

target_or_system: T167S Rho-MatB (Rhodopseudomonas palustris, UniProt Q6ND88, C106A/K488A/Q457C/R286C/T167S)
Construct: His6-tag, Rho-MatB background, two tetramethylrhodamines (5-IATR)
assay_summary: Survey fluorescence titration of tetramethylrhodamine-labelled MatB variants with ATP in 50 mM Tris.HCl pH 7.5, 150 mM NaCl, 10 mM MgCl2, 0.3 mg/ml BSA, 20°C, without full optimization of labelling and purification.
pKd: −log10 of the molar value.
attribute_measured: pKd

[[record]]
molecule = "Nc1ncnc2c1ncn2[C@@H]1O[C@H](COP(=O)(O)OP(=O)(O)OP(=O)(O)O)[C@@H](O)[C@H]1O [ATP, adenosine 5'-triphosphate]"
target_or_system = "T167S Rho-MatB (Rhodopseudomonas palustris, UniProt Q6ND88, C106A/K488A/Q457C/R286C/T167S)"
attribute_measured = "pKd"
observed_value = 4.28


* * *

target_or_system: T303S Rho-MatB (Rhodopseudomonas palustris, UniProt Q6ND88, C106A/K488A/Q457C/R286C/T303S)
Construct: His6-tag, Rho-MatB background, two tetramethylrhodamines (5-IATR)
assay_summary: Survey fluorescence titration of tetramethylrhodamine-labelled MatB variants with ATP in 50 mM Tris.HCl pH 7.5, 150 mM NaCl, 10 mM MgCl2, 0.3 mg/ml BSA, 20°C, without full optimization of labelling and purification.
Type: binding
attribute_measured: Kd (µM)

[[record]]
compound = "Nc1ncnc2c1ncn2[C@@H]1O[C@H](COP(=O)(O)OP(=O)(O)OP(=O)(O)O)[C@@H](O)[C@H]1O [ATP, adenosine 5'-triphosphate]"
attribute_measured = "Kd"
observed_value = 56


* * *

target_or_system: S170A Rho-MatB (Rhodopseudomonas palustris, UniProt Q6ND88, C106A/K488A/Q457C/R286C/S170A)
Construct: His6-tag, Rho-MatB background, two tetramethylrhodamines (5-IATR)
Sequence (Q6ND88 entry or part of it C106A/S170A/R286C/Q457C/K488A): as the sequence (Q6ND88 entry or part of it C106A/T208A/R286C/Q457C/K488A) above, with S170A, A208T counted along it
assay_summary: Survey fluorescence titration of tetramethylrhodamine-labelled MatB variants with ATP in 50 mM Tris.HCl pH 7.5, 150 mM NaCl, 10 mM MgCl2, 0.3 mg/ml BSA, 20°C, without full optimization of labelling and purification.
Assay type: binding
pKd: −log10 of the molar value.
attribute_measured: pKd

[[record]]
compound = "Nc1ncnc2c1ncn2[C@@H]1O[C@H](COP(=O)(O)OP(=O)(O)OP(=O)(O)O)[C@@H](O)[C@H]1O [ATP, adenosine 5'-triphosphate]"
attribute_measured = "pKd"
observed_value = 5.40


* * *

target_or_system: T303A Rho-MatB (Rhodopseudomonas palustris, UniProt Q6ND88, C106A/K488A/Q457C/R286C/T303A)
Construct: His6-tag, Rho-MatB background, two tetramethylrhodamines (5-IATR)
Sequence (Q6ND88 entry or part of it C106A/R286C/T303A/Q457C/K488A): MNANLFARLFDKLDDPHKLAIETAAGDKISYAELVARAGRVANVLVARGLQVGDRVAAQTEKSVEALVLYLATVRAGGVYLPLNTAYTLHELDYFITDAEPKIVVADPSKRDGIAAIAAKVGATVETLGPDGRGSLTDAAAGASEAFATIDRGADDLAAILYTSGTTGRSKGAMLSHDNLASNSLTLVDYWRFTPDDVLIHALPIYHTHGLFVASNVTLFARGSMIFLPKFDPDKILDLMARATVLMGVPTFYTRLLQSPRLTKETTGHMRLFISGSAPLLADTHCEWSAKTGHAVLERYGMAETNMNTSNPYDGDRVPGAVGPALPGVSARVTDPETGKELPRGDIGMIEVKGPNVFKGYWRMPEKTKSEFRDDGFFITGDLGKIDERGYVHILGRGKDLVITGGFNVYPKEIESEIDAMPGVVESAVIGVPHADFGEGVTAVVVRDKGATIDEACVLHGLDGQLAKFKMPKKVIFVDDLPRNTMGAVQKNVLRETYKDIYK
assay_summary: Fluorescence titration (excitation 553 nm, emission 571 nm) of 0.5 µM fully purified Rho-MatB with ADP in 50 mM Hepes pH 7.0, 100 mM NaCl, 10 mM MgCl2, 0.3 mg/ml BSA, 20°C, quadratic binding fit.
pKd: −log10 of the molar value.
attribute_measured: pKd

[[record]]
compound = "Nc1ncnc2c1ncn2[C@@H]1O[C@H](COP(=O)(O)OP(=O)(O)O)[C@@H](O)[C@H]1O [ADP, adenosine 5'-diphosphate]"
observed_value = 2.74


* * *

target_or_system: Q490A Rho-MatB (Rhodopseudomonas palustris, UniProt Q6ND88, C106A/K488A/Q457C/Q490A/R286C)
Construct: His6-tag, Rho-MatB background, two tetramethylrhodamines (5-IATR)
assay_summary: Survey fluorescence titration of tetramethylrhodamine-labelled MatB variants with ATP in 50 mM Tris.HCl pH 7.5, 150 mM NaCl, 10 mM MgCl2, 0.3 mg/ml BSA, 20°C, without full optimization of labelling and purification.
pKd: −log10 of the molar value.
attribute_measured: pKd

[[record]]
compound = "Nc1ncnc2c1ncn2[C@@H]1O[C@H](COP(=O)(O)OP(=O)(O)OP(=O)(O)O)[C@@H](O)[C@H]1O [ATP, adenosine 5'-triphosphate]"
target_or_system = "Q490A Rho-MatB (Rhodopseudomonas palustris, UniProt Q6ND88, C106A/K488A/Q457C/Q490A/R286C)"
attribute_measured = "pKd"
observed_value = 4.18


* * *

target_or_system: R299A Rho-MatB (Rhodopseudomonas palustris, UniProt Q6ND88, C106A/K488A/Q457C/R286C/R299A)
Construct: His6-tag, Rho-MatB background, two tetramethylrhodamines (5-IATR)
assay_summary: Survey fluorescence titration of tetramethylrhodamine-labelled MatB variants with ATP in 50 mM Tris.HCl pH 7.5, 150 mM NaCl, 10 mM MgCl2, 0.3 mg/ml BSA, 20°C, without full optimization of labelling and purification.
attribute_measured: Kd (µM)

[[record]]
compound = "Nc1ncnc2c1ncn2[C@@H]1O[C@H](COP(=O)(O)OP(=O)(O)OP(=O)(O)O)[C@@H](O)[C@H]1O [ATP, adenosine 5'-triphosphate]"
attribute_measured = "Kd"
unit_of_measure = "µM"
observed_value = 2.4


* * *

target_or_system: S164A Rho-MatB (Rhodopseudomonas palustris, UniProt Q6ND88, C106A/K488A/Q457C/R286C/S164A)
Construct: His6-tag, Rho-MatB background, two tetramethylrhodamines (5-IATR)
Sequence (Q6ND88 entry or part of it C106A/S164A/R286C/Q457C/K488A): as the sequence (Q6ND88 entry or part of it C106A/T208A/R286C/Q457C/K488A) above, with S164A, A208T counted along it
assay_summary: Survey fluorescence titration of tetramethylrhodamine-labelled MatB variants with ATP in 50 mM Tris.HCl pH 7.5, 150 mM NaCl, 10 mM MgCl2, 0.3 mg/ml BSA, 20°C, without full optimization of labelling and purification.
pKd: −log10 of the molar value.
attribute_measured: pKd

[[record]]
molecule = "Nc1ncnc2c1ncn2[C@@H]1O[C@H](COP(=O)(O)OP(=O)(O)OP(=O)(O)O)[C@@H](O)[C@H]1O [ATP, adenosine 5'-triphosphate]"
attribute_measured = "pKd"
observed_value = 4.76


* * *

target_or_system: H207A Rho-MatB (Rhodopseudomonas palustris, UniProt Q6ND88, C106A/H207A/K488A/Q457C/R286C)
Construct: His6-tag, Rho-MatB background, two tetramethylrhodamines (5-IATR)
assay_summary: Survey fluorescence titration of tetramethylrhodamine-labelled MatB variants with ATP in 50 mM Tris.HCl pH 7.5, 150 mM NaCl, 10 mM MgCl2, 0.3 mg/ml BSA, 20°C, without full optimization of labelling and purification.
Type: binding
attribute_measured: Kd (µM)

[[record]]
compound = "Nc1ncnc2c1ncn2[C@@H]1O[C@H](COP(=O)(O)OP(=O)(O)OP(=O)(O)O)[C@@H](O)[C@H]1O [ATP, adenosine 5'-triphosphate]"
target_or_system = "H207A Rho-MatB (Rhodopseudomonas palustris, UniProt Q6ND88, C106A/H207A/K488A/Q457C/R286C)"
observed_value = 224


src = paper PMC5479551
